# Tested on: HCC 2998
# testMethodNotes: NCI tumour cell line growth inhibition, 48 h
Activity calls are given as the source filed them. Cut-off read from the data, not from the text of the source: active = GI50 up to about 1.1 µM and inactive = higher.
Bench note: report the call from active, inactive

Worked set:
>>> assignedclass("NC1=C(NC(=O)Cc2ccccc2F)C(=O)c2ccccc2C1=O")
"inactive"
>>> assignedclass("C[Si](C)(C)OC1c2[nH]c3ccccc3c2CN2C(=O)CCC12 (stereo not given)")
"inactive"
>>> assignedclass("COc1cc(/C=C2\\N=C(c3ccccc3)N(c3ccc(C(=O)c4ccccc4)cc3N3C(=O)/C(=C/c4cc(OC)c(OC)c(OC)c4)N=C3c3ccccc3)C2=O)cc(OC)c1OC")
"inactive"
>>> assignedclass("O=c1oc(=O)c2oc3ccccc3oc1=2")
"inactive"
>>> assignedclass("CC1CC(C)C(=O)C(C(=O)CC2CC(=O)NC2=O)C1 (stereo not given)")
"inactive"
>>> assignedclass("Cc1ccc2cc3cccc(C(=O)NCCN(C)C)c3nc2c1")
"inactive"
>>> assignedclass("CN1c2ccccc2S(=O)(=O)n2c(CCc3ccccc3)nnc21")
"inactive"
>>> assignedclass("CC1OC(O[C@H]2CC[C@]3(C=O)[C@H]4CC[C@]5(C)[C@H](C6=CC(=O)OC6)CC[C@]5(O)[C@@H]4C=C[C@]3(O)C2)CC(O)C1O (stereo not given in full)")
"active"
>>> assignedclass("N#Cc1c(N)nc2c3c1NC(=O)C(C(N)=O)C3c1ccccc1O2 (stereo not given)")
"inactive"
>>> assignedclass("CC(C)N1CC2CN(Cc3ccccc3)CC(C1)C2=O")
"inactive"

Task: Please indicate how the test categorized COc1ccc(-c2c(C(C)=O)c(-c3ccccc3)n(C3OC(CO)C(O)C(O)C3O)c(=S)c2C#N)cc1 (stereo not given) .
Output: inactive

Task: Please indicate how the test categorized CCCCCn1c(=O)c2c(=O)[nH][nH]c2c2ccccc21 .
Output: inactive

Task: Please indicate how the test categorized OC(Cc1cccc2ccccc12)CN1CCC(c2ccccc2)CC1 (stereo not given) .
Output: inactive

Task: Please indicate how the test categorized CC(C)(CN1CCCCC1)C(=O)CC(SCCS(=O)(=O)O)c1ccccc1 (stereo not given) .
Output: inactive

Task: Please indicate how the test categorized O=C(Nc1ccc(Br)cc1)C(=O)C(C(=O)c1ccccc1F)C1OC(=O)c2ccccc21 (stereo not given) .
Output: inactive

Task: Please indicate how the test categorized CCOC(=O)c1cc(-c2ccc(OC)c(OC)c2)c[nH]1 .
Output: inactive

Task: Please indicate how the test categorized CN1C(=O)N(C)C2(O)c3ccccc3C(=O)C12O (stereo not given) .
Output: inactive

src = ChEMBL document CHEMBL1201862
